# assay.target: hNaV1.7 (Homo sapiens, UniProt Q15858)
# Construct: expressed in transfected cells; host or cells: HEK293
# Sequence (Q15858 whole entry): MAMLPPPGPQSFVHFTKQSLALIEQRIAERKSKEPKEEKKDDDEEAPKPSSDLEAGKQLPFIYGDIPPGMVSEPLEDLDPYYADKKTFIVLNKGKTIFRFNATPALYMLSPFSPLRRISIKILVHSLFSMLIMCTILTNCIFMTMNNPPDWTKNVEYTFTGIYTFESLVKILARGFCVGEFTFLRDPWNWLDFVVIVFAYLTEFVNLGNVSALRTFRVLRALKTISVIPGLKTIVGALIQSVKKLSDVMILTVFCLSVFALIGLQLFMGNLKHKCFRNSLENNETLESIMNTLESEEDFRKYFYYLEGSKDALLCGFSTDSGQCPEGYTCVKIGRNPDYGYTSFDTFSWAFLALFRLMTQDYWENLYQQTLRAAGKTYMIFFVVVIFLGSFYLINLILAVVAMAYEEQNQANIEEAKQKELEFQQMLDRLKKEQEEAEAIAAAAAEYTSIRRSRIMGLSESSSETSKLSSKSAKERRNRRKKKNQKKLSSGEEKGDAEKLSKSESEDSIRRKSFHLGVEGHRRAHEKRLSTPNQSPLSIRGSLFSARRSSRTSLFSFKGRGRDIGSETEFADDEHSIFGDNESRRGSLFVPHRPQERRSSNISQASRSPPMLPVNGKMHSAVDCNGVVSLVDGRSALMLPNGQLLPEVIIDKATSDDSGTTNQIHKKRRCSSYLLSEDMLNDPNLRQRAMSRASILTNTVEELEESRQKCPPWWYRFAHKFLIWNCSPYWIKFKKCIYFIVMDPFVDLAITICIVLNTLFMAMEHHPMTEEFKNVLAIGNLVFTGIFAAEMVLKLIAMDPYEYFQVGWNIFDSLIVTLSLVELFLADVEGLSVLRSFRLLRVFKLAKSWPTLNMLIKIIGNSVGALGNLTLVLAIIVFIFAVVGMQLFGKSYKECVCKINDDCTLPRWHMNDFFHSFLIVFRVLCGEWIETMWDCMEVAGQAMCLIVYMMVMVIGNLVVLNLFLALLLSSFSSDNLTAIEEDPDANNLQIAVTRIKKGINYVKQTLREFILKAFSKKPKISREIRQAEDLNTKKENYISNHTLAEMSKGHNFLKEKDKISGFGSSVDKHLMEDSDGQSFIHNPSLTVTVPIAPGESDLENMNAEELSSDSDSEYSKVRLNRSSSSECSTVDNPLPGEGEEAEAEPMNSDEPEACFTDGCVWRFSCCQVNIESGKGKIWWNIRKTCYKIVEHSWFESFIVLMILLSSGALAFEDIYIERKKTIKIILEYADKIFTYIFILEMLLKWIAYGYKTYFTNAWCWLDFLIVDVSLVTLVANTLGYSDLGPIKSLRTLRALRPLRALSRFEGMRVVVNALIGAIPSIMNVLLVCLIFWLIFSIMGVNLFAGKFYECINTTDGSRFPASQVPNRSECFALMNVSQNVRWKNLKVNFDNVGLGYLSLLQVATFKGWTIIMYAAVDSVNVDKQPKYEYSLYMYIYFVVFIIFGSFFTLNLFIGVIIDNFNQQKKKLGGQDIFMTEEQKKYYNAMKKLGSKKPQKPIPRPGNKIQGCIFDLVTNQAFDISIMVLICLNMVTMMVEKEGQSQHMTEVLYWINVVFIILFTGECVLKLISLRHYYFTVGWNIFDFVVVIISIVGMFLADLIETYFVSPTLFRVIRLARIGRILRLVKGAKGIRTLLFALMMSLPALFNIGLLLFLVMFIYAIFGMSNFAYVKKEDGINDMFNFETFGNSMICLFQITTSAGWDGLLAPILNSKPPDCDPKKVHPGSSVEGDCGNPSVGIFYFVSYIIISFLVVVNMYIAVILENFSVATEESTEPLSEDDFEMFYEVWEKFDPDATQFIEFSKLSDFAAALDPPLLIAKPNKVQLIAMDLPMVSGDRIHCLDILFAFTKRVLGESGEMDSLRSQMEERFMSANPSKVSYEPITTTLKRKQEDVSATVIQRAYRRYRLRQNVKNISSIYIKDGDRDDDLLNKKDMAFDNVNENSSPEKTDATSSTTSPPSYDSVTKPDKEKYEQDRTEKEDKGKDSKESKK
# method.notes: QPatch NaV1.7 assay (whole-cell patch clamp, QPatch16x)
# Type: cell-based
# details: holding voltage −90 mV (most channels closed), HEK293-hNaV1.7 cells, read-out: QP Nav1.7 −90 mV pIC50 (converted)
Structures can show the parent of a compound that is named as a salt.
Consider the following molecules; for each one, report its IC50.
One number for each entry, in µM.

{"columns": ["molecule", "IC50, µM"],
 "data": [
  ["O=C1NCCC[C@]12CC[C@@H](c1cc(-c3ccc(C(F)(F)F)cc3)ccn1)N2 [Example 51, hydrochloride]", 25.1],
  ["CCOc1ccc(F)c(-c2cc([C@@H]3CC[C@]4(CCN(C)C4=O)N3)ncc2F)c1 [Example 221, hydrochloride]", 316]
]}

# per-item lookup of IC50; items listed below
1. CCOc1ccc(F)c(-c2cc([C@H]3CC[C@]4(CCN(C)C4=O)N3)ncc2F)c1 [Example 222, hydrochloride]
2. Cc1cnc([C@H]2CC[C@@]3(CCN(C)C3=O)N2)cc1-c1ccc(C(F)(F)F)cc1 [Example 41, hydrochloride]
3. O=C1NCC[C@]12CC[C@@H](c1cc(-c3cccc(OC(F)(F)F)c3)ccn1)N2 [Example 116, hydrochloride]
4. CCOc1ccc(C)c(-c2ccnc([C@H]3CC[C@@]4(CCN(C)C4=O)N3)c2)c1 [Example 178, hydrochloride]
5. O=C1NCCC[C@@]12CC[C@H](c1cc(-c3ccc(F)cc3)ccn1)N2 [Example 111, hydrochloride]

1. 398
2. 25.1
3. 79.4
4. 631
5. 200
